Values were extracted from ChEMBL document CHEMBL4507327.

- target entity: Mitogen-activated protein kinase 7 (Homo sapiens, UniProt Q13164)
- Sequence (Q13164 whole entry): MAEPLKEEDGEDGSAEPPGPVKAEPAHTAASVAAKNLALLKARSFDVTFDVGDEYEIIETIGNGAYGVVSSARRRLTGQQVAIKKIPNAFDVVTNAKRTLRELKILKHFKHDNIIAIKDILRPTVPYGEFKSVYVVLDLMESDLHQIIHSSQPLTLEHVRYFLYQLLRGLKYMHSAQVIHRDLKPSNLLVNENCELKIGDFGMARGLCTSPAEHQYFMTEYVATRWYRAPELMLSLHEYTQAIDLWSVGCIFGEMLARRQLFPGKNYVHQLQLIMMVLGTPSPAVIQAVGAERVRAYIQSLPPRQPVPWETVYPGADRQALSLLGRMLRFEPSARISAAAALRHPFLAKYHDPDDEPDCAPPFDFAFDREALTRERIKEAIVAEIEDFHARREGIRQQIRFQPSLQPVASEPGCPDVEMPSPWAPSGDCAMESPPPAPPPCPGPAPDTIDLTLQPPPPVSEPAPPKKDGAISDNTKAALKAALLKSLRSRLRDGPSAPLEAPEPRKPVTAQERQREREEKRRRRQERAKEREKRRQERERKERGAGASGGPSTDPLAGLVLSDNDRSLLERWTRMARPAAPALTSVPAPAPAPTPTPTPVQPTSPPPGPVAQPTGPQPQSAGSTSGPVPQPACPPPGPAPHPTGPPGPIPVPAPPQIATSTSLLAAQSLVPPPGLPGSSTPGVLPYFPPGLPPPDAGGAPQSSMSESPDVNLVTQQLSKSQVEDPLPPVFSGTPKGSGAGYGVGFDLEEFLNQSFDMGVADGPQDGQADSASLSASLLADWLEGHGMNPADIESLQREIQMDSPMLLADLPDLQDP
- measurement description: ERK5(MAP7LGF1) Takeda global kinase panel
pIC50: −log10 of the molar value.

# compound, pIC50
measured = [
    ("CN1C(=O)[C@@H](N2CCc3cn(CC4CCS(=O)(=O)CC4)nc3C2=O)COc2ccccc21 [TP-030n]", 6.00),
]

---

Quick list: IC50 per entry.
- target entity: Serine/threonine-protein kinase VRK2 (Homo sapiens, UniProt Q86Y07)
- Sequence (Q86Y07 whole entry): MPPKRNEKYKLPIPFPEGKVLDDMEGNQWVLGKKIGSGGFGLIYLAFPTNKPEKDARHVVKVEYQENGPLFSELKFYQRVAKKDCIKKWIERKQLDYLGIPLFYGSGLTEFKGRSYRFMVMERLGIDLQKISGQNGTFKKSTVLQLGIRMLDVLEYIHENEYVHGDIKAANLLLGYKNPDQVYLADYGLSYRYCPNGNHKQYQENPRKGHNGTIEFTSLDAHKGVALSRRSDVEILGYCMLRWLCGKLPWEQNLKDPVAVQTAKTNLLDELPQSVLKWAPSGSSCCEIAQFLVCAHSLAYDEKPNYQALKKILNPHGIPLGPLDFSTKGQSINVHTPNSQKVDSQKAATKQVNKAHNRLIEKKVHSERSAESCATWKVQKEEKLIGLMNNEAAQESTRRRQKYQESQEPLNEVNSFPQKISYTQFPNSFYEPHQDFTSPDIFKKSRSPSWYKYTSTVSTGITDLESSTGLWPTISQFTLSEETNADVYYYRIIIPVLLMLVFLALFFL
- measurement description: VRK2(VRK2LGRI) Takeda global kinase panel

# molecule, IC50 / nM
rows = [
    ("CN1C(=O)[C@@H](N2CCc3cn(CC4CCS(=O)(=O)CC4)nc3C2=O)COc2ccccc21 [TP-030n]", 1000),
    ("CN1C(=O)[C@@H](N2CCc3cn(Cc4ccccc4)nc3C2=O)COc2ccccc21 [TP-030-1]", 1000),
]
